Source: PubChem BioAssay (NCI)

# Tested on: SF-295 CNS
# assay remarks: NCI tumour cell line growth inhibition, 48 h; in the data active means GI50 below about 0.43 µM; inactive means the rest
Possible outcomes: 1 (yes) = active, 0 (no) = inactive

{"columns": ["compound", "system", "assigned class"],
 "data": [
  ["CN(C)/C=C/c1nnnn1-c1ccc(Cl)cc1", "SF-295 CNS", "0 (no)"],
  ["Cn1c(=O)c(Oc2cccc(F)c2)cc2cnc(NC3CCOCC3)nc21", "SF-295 CNS", "0 (no)"],
  ["O=S(=O)([O-])[O-].[Cl-].[NH2-].[NH2-].[NH2-].[NH2-].[Ru+3].c1ccc(-c2cccnc2)cc1", "SF-295 CNS", "0 (no)"],
  ["COc1cc2c(cc1OCCCOC1=C=C=C(c3ccc4c(c3)c3cc(-c5ccc(OCCCOc6cc7c(cc6OC)C(=O)N6CCC[C@H]6C=N7)cc5)ccc3n4S(=O)(=O)c3ccc(C)cc3)C=C1)N=C[C@@H]1CCCN1C2=O", "SF-295 CNS", "0 (no)"],
  ["CN(C)CCCNc1c2ccccc2nc2cccc([N+](=O)[O-])c12", "SF-295 CNS", "1 (yes)"],
  ["Cc1ccccc1S(=O)(=O)N1[C@H](c2ccc(Cl)cc2)C(C(=O)N[C@@H](Cc2ccccc2)C(N)=O)=C[C@@H]1C(C)(C)C", "SF-295 CNS", "0 (no)"],
  ["O=C1c2ccccc2-c2c1c1ccc([N+](=O)[O-])cc1c(=O)n2CCNCCCNCCn1c2c(c3ccc([N+](=O)[O-])cc3c1=O)C(=O)c1ccccc1-2", "SF-295 CNS", "1 (yes)"],
  ["Nc1c(C(=O)c2cccc(-c3ccc[n+]([O-])c3)c2)cnn1-c1ccc(F)cc1F", "SF-295 CNS", "0 (no)"],
  ["COc1ccc(Nc2ncccc2/C=C/C(=O)c2cc(OC)c(OC)c(OC)c2)cc1", "SF-295 CNS", "0 (no)"],
  ["CCN(CC)CCOc1ccc(Nc2ncc3cc(-c4c(Cl)cccc4Cl)c(=O)n(CCOC)c3n2)cc1", "SF-295 CNS", "1 (yes)"],
  ["CN(C)C(=S)NN=C(c1ccccn1)c1ccccn1", "SF-295 CNS", "1 (yes)"],
  ["CCCCCCCCCCCCCC[P+](CCCCCC)(CCCCCC)CCCCCC", "SF-295 CNS", "1 (yes)"],
  ["Cc1[nH]c(C(=O)Nc2ccc(C(=O)N3CCNCC3)cc2OC(C)C)c(Cl)c1Cl", "SF-295 CNS", "0 (no)"],
  ["O=S1(=O)N(Cc2ccccc2)[C@@H](Cc2ccccc2)C2O[C@H]2[C@H](Cc2ccccc2)N1Cc1ccccc1 (stereo partly drawn)", "SF-295 CNS", "0 (no)"],
  ["Fc1ccc(C2CC(c3cccc(Nc4ccncc4)c3)=NN2c2cc(Cl)cc(Cl)c2)cc1 (stereo not drawn)", "SF-295 CNS", "0 (no)"],
  ["O=C(Cn1c(=O)c(-c2ccccc2)nc2ccccc21)c1cccnc1", "SF-295 CNS", "0 (no)"],
  ["NC(N)=N/N=C/c1c(-c2cccs2)nc2sccn12", "SF-295 CNS", "0 (no)"],
  ["c1cc(C2CCCCC2)ccc1OCCCCCCN1CCNCC1", "SF-295 CNS", "0 (no)"]
]}
